Just for reference, patent US20180099931A1 is where these values come from.

biological target: F508delCFTR (Homo sapiens, UniProt P13569, DEL508-508); construct: expressed in transfected cells; host or cells: CFBE41o- human lung-derived epithelial cells (CFBE4lo-F508delCFTR-HRP), doxycycline-inducible; test: Cell Surface Expression-Horse Radish Peroxidase (CSE-HRP) Assay; type: cell-based
Sequence (P13569 with tags, fused parts or gaps DEL508-508): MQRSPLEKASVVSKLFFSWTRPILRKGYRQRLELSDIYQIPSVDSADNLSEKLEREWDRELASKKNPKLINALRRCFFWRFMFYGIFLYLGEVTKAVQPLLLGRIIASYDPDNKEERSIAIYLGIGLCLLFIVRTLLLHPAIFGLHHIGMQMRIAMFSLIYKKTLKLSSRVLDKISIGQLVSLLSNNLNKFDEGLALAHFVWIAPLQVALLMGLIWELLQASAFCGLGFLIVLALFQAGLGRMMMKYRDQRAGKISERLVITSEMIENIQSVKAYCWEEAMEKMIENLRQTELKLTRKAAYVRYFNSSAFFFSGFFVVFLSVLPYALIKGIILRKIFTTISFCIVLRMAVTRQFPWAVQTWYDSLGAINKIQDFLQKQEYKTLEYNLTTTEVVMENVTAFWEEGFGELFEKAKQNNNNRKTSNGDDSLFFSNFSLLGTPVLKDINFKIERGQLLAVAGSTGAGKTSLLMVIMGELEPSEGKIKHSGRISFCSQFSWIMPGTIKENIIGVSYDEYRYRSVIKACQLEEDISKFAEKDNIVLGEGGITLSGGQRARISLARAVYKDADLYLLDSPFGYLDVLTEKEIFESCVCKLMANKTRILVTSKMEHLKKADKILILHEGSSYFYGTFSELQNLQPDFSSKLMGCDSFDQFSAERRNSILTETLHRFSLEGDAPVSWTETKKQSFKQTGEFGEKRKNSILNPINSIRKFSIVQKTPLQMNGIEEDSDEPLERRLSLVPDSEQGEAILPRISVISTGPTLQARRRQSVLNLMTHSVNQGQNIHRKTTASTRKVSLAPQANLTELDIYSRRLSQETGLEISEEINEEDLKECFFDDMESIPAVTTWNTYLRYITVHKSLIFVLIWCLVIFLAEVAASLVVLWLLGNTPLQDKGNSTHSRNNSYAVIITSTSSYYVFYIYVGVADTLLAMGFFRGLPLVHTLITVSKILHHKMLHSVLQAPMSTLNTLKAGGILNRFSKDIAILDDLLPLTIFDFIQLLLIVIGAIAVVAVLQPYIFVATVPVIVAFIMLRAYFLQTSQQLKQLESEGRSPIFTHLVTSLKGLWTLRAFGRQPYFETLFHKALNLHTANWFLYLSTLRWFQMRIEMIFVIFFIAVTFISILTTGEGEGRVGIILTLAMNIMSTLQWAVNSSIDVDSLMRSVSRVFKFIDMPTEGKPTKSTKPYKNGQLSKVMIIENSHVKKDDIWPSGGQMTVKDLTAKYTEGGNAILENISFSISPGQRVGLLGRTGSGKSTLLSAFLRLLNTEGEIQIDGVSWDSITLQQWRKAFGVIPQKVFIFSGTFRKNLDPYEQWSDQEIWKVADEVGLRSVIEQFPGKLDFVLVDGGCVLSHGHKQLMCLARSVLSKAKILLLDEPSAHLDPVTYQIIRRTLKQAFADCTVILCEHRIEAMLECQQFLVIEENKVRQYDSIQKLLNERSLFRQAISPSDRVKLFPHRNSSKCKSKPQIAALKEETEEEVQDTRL
pEC50: −log10 of the molar value.
MEASURED_ENDPOINT: pEC50

pEC50 in this record for `COc1ccc(C(C)(C)C)cc1CN[C@H]1[C@H](C(C)(C)C)[C@@H](C(=O)O)N(C(=O)Oc2ccccc2)[C@H]1c1ccccc1` : > 6.00

---

target: F508delCFTR (Homo sapiens, UniProt P13569, DEL508-508); construct: expressed in transfected cells; host or cells: CFBE41o- human lung-derived epithelial cells (CFBE4lo-F508delCFTR-HRP), doxycycline-inducible; assay: Cell Surface Expression-Horse Radish Peroxidase (CSE-HRP) Assay; type: cell-based; conditions: test compound without co-corrector; read-out: EC50 (without co-corrector)
MEASURED_ENDPOINT: EC50

COMPOUND	SYSTEM_TESTED	EC50
COc1cc(C(F)(F)F)ccc1CN[C@H]1[C@H](C(C)(C)C)[C@@H](C(=O)O)N(C(=O)C2CCCCC2)[C@H]1c1cccnc1OC [Example I-39]	F508delCFTR (Homo sapiens, UniProt P13569, DEL508-508)	1000 to 10000 nM
COc1ccc(C(C)(C)C)cc1CN[C@H]1[C@H](C(C)(C)C)[C@@H](C(=O)O)N(C(=O)C2CC=CC2)[C@H]1c1ccccc1 [II-321]	F508delCFTR (Homo sapiens, UniProt P13569, DEL508-508)	1000 to 10000 nM
COc1ncc(C2CCC2)cc1CN[C@H]1[C@H](C(C)(C)C)[C@@H](C(=O)O)N(C(=O)C2COc3ccccc3O2)[C@H]1c1ccccc1 (stereo partly drawn) [II-474]	F508delCFTR (Homo sapiens, UniProt P13569, DEL508-508)	1000 to 10000 nM
COc1ccc(C(C)(C)C)cc1CN[C@H]1[C@H](C(C)(C)C)[C@@H](C(=O)O)N(C(=O)C2CCCC(F)(F)C2)[C@H]1c1cccnc1N(C)C (single isomer, unassigned) [Example 42]	F508delCFTR (Homo sapiens, UniProt P13569, DEL508-508)	< 1000 nM
COc1cccc(-c2cnc(OC)c(CN[C@H]3[C@H](C(C)(C)C)[C@@H](C(=O)O)N(C(=O)C4CCCCC4)[C@H]3c3ccccc3)c2)c1 [Example II-341]	F508delCFTR (Homo sapiens, UniProt P13569, DEL508-508)	< 1000 nM

Then there is this compound:
Per the record, COc1ccc(C(F)(F)F)cc1CN[C@H]1[C@H](C(C)(C)C)[C@@H](C(=O)O)N(C(=O)C2CCCCC2)[C@H]1c1ncccc1Cl [III-164] has EC50 of > 10000 nM
